- Target or test system: MC4 (Homo sapiens, UniProt P32245)
- Sequence (P32245 whole entry): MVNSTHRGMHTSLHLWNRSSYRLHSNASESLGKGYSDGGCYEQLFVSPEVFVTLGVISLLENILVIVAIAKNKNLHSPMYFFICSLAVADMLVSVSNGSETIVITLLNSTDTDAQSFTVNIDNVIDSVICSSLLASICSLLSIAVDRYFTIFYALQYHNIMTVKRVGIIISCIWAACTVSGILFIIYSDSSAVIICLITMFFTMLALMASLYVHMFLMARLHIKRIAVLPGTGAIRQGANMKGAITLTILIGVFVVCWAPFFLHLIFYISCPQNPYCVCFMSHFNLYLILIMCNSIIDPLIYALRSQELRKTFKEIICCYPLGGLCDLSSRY
- Assay details: Radioligand binding assay (125I-NDP-alpha-MSH competition, SPA, membranes of transfected HEK 293 cells)
- Design: expressed in transfected cells; host or cells: HEK 293 (stably transfected), membrane preparation
- Condition details: 125I-NDP-alpha-MSH competition; Ki from IC50 by Cheng-Prusoff; read-out: MC4 Binding Ki
Counter-ions that a name gives are not always drawn.
Measured parameter: Ki (nM)

Compound	Numeric readout
CC(C)CN(CC(C1CCCCC1)N1CCN(C(=O)C(Cc2ccc(Cl)cc2)NC(=O)CC2NCc3ccccc32)CC1)S(C)(=O)=O (single isomer, unassigned) [Example N71, dihydrochloride salt]	11.3
CCN(CC)CC(c1ccccc1F)N1CCN(C(=O)[C@@H](Cc2ccc(Cl)cc2)NC(=O)[C@H]2Cc3ccccc3C(C)(C)N2)CC1 (stereo partly drawn)	18.1
CC(C)CC(CC(C)C)N1CCN(C(=O)[C@@H](Cc2ccc(Cl)cc2)NC(=O)CC2NCc3ccccc32)CC1.Cl.Cl (stereo partly drawn)	5.8

###

- Target or test system: MC4 (Homo sapiens, UniProt P32245)
- Assay details: Radioligand binding assay (125I-NDP-alpha-MSH competition, SPA, membranes of transfected HEK 293 cells)
- Set-up: expressed in transfected cells; host or cells: HEK 293 (stably transfected), membrane preparation
Counter-ions that a name gives are not always drawn.
Measured parameter: Ki (nM)

Compound	Numeric readout
O=C(CC1NCc2ccccc21)N[C@H](Cc1ccc(Cl)cc1)C(=O)N1CCN(C(CC2CCCCC2)CN2CCOCC2)CC1 (mixture of isomers) [Example N38, tri(trifluoroacetate) salt]	10

###

- Target or test system: UniProtKB P32245
- Assay details: Melanocortin receptor whole cell cAMP accumulation assay (MC4R)
- Assay type: cell-based
- Design: expressed in transfected cells; host or cells: HEK 293 (stably transfected)
- Description: Melanocortin Receptor Whole Cell cAMP Accumulation Assay These are serially diluted in 100% DMSO. The compound plate is further diluted 1:200 in compound dilution buffer (HBSS-092, 1 mM Ascorbic Acid, 1 mM IBMX, 0.6% DMSO, 0.1% BSA). […] Radioligand binding assays were run in SPA buffer (50 mM Sodium Acetate, 0.1% BSA). […] The plates were counted in a Wallac MicroBeta counter after a 12-hour incubation. […]
pEC50: −log10 of the molar value. Structures can show the parent of a compound that is named as a salt.

Molecule	pEC50
O=C(CC1NCc2ccccc21)N[C@H](Cc1ccc(Cl)cc1)C(=O)N1CCN(C(CC2CCCCC2)CN2CCOCC2)CC1 (mixture of isomers) [Example N38, tri(trifluoroacetate) salt]	7.16

###

- Target or test system: MC4 (Homo sapiens)
- Assay details: Melanocortin receptor whole cell cAMP accumulation assay (MC4R)
- Assay type: cell-based
- Design: expressed in transfected cells; host or cells: HEK 293 (stably transfected)
- Condition details: MC4 agonist potency; read-out: MC4 EC50
pEC50: −log10 of the molar value. Counter-ions that a name gives are not always drawn.
Measured pEC50 values are reported for all entries that follow.

Compound	pEC50
CC(C)CC(CC(C)C)N1CCN(C(=O)[C@@H](Cc2ccc(Cl)cc2)NC(=O)CC2NCc3ccccc32)CC1.Cl.Cl (stereo partly drawn) [Compd 3251]	7.12
CCN(CC)CC(c1ccccc1F)N1CCN(C(=O)[C@@H](Cc2ccc(Cl)cc2)NC(=O)[C@H]2Cc3ccccc3C(C)(C)N2)CC1 (stereo partly drawn) [Compd 814]	6.90
CC(C)CN(CC(C1CCCCC1)N1CCN(C(=O)C(Cc2ccc(Cl)cc2)NC(=O)CC2NCc3ccccc32)CC1)S(C)(=O)=O (single isomer, unassigned) [Example N71, dihydrochloride salt]	8.08
